Tested on: SW982
Test: relative viability vs DMSO control (72 h) (fraction); higher = more viable cells
Details: 0.00152 µM
Note to self: use t only for relative viability readings below 1; a reading exactly at 1 still gets f.

[[record]]
compound = "C[C@@H](Oc1cc(-c2cnn(C3CCNCC3)c2)cnc1N)c1c(Cl)ccc(F)c1Cl [Crizotinib]"
label_class = "f"


Confirm or reject: relative viability of CCCCCCCCCCCCCCCCCCOP(=O)([O-])OC1CC[N+](C)(C)CC1 [Perifosine] lies strictly below 1 f

Confirm or reject: relative viability of C[C@@H]1COC(Nc2ccc3ncnc(Nc4ccc(OCc5nccs5)c(Cl)c4)c3c2)=N1 [Varlitinib] lies strictly below 1 t
